The measurements presented in this section are drawn from ChEMBL document CHEMBL4184332.

target: Carbonic anhydrase 4 (Homo sapiens, UniProt P22748); assay: Inhibition of recombinant human carbonic anhydrase-4 incubated for 15 mins by stopped-flow CO2 hydrase assay
Sequence (P22748 whole entry): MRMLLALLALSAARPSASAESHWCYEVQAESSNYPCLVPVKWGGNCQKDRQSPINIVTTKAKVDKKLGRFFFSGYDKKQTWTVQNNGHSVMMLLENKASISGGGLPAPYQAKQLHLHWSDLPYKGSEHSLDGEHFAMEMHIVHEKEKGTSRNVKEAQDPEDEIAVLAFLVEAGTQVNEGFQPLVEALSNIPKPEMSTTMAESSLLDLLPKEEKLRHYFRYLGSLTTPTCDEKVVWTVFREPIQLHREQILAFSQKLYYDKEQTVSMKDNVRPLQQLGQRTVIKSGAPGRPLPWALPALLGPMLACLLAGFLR
pKi: −log10 of the molar value.
Class satisfied: pKi at least 6. Class not satisfied: pKi below 6.

1. NS(=O)(=O)c1ccc(OCCNC(=O)Cc2ccccc2Nc2c(Cl)cccc2Cl)cc1 = not satisfied

Next:
// inclusive: pKi at least 6? input: NS(=O)(=O)c1ccc(OCCCNC(=O)C2CCn3c(C(=O)c4ccccc4)ccc32)cc1 (configuration not stated)
satisfied

* * *

biological target: Carbonic anhydrase 12 (Homo sapiens, UniProt O43570); experiment: Inhibition of recombinant human carbonic anhydrase-12 incubated for 15 mins by stopped-flow CO2 hydrase assay
Sequence (O43570 whole entry): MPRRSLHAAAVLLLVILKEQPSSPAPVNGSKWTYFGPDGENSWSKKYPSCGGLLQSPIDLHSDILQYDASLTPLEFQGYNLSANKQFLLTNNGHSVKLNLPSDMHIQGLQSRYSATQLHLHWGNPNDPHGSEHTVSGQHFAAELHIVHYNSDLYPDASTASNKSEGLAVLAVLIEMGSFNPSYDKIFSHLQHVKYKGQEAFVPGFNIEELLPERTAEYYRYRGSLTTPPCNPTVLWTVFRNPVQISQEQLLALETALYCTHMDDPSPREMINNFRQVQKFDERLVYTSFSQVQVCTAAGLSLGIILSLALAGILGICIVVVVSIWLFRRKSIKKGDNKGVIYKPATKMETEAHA
observation.type: pKi
In simple prose, pKi is minus the logarithm base ten of a concentration in moles per litre.

Known results for compounds:
1. CC(C)Cc1ccc(C(C)C(=O)Nc2ccc(S(N)(=O)=O)cc2)cc1 (racemic) = 7.48
2. NS(=O)(=O)c1ccc(NC(=O)C2CCn3c(C(=O)c4ccccc4)ccc32)cc1 (centres undefined) = 7.61
3. NS(=O)(=O)c1ccc(OCCCNC(=O)C2CCn3c(C(=O)c4ccccc4)ccc32)cc1 (centres undefined) = 8.14

--- query ---
Item: CC(C(=O)NCCOc1ccc(S(N)(=O)=O)cc1)c1cccc(C(=O)c2ccccc2)c1 (racemic) | pKi: 8.07
